assayProcedure: The drug is tested on Z-022 corresponding to mouse gut metagenome with ENA study accession number: PRJEB37062 and ENA sample accession number: ERS12561821 for biotransformation under anaerobic condition. The drug concentrations were measured over 9 timepoints collected between 0 and 24 hours of incubation by liquid-chromatography-coupled mass spectrometry (LC–MS); further: call rule not given here
studyConditions: 2 µM
propertyLabel: Bacterial Biotransformation

[
  {
    "compound": "C[C@]12CCC(=O)C=C1[C@@H]1C[C@@H]1[C@H]1[C@@H]3[C@@H]4C[C@@H]4[C@@]4(CCC(=O)O4)[C@@]3(C)CC[C@@H]12",
    "result": "Compound NOT metabolized"
  },
  {
    "compound": "CC(C)c1c(CN(C)C(C)Cc2ccccc2)n(C)n(-c2ccccc2)c1=O (centres undefined)",
    "result": "Compound metabolized"
  },
  {
    "compound": "CN[C@H]1CC[C@@H](c2ccc(Cl)c(Cl)c2)c2ccccc21",
    "result": "Compound NOT metabolized"
  },
  {
    "compound": "CN1C[C@H](C(=O)N[C@]2(C)O[C@@]3(O)[C@@H]4CCCN4C(=O)[C@H](Cc4ccccc4)N3C2=O)C[C@@H]2c3cccc4[nH]cc(c34)C[C@H]21.CS(=O)(=O)O [DIHYDROERGOTAMINE MESYLATE]",
    "result": "Compound metabolized"
  }
]

----------
assayProcedure: The drug is tested on Z-011 corresponding to mouse gut metagenome with ENA study accession number: PRJEB37062 and ENA sample accession number: ERS12561811 for biotransformation under anaerobic condition. The drug concentrations were measured over 9 timepoints collected between 0 and 24 hours of incubation by liquid-chromatography-coupled mass spectrometry (LC–MS)
studyConditions: 2 µM

[
  {
    "molecule": "CN(C)C(=O)Oc1cccc([N+](C)(C)C)c1.[Br-] [NEOSTIGMINE BROMIDE]",
    "Bacterial Biotransformation": "Compound NOT metabolized"
  },
  {
    "molecule": "COc1ccc2cc([C@H](C)C(=O)O)ccc2c1",
    "Bacterial Biotransformation": "Compound NOT metabolized"
  },
  {
    "molecule": "CN1CCCCC1CCN1c2ccccc2Sc2ccc([S+](C)[O-])cc21.O=S(=O)(O)c1ccccc1 (centres undefined) [MESORIDAZINE BESYLATE]",
    "Bacterial Biotransformation": "Compound NOT metabolized"
  },
  {
    "molecule": "N[C@@H](Cc1ccc(N(CCCl)CCCl)cc1)C(=O)O",
    "Bacterial Biotransformation": "Compound metabolized"
  },
  {
    "molecule": "Br.COc1ccc2c(c1)[C@]13CCCC[C@@H]1[C@H](C2)N(C)CC3.O [DEXTROMETHORPHAN HYDROBROMIDE]",
    "Bacterial Biotransformation": "Compound NOT metabolized"
  },
  {
    "molecule": "Br.CN1CCC[C@@H]1Cc1c[nH]c2ccc(CCS(=O)(=O)c3ccccc3)cc12 [ELETRIPTAN HYDROBROMIDE]",
    "Bacterial Biotransformation": "Compound NOT metabolized"
  },
  {
    "molecule": "CN(C)CCOC(C)(c1ccccc1)c1ccccn1.O=C(O)CCC(=O)O (centres undefined) [DOXYLAMINE SUCCINATE]",
    "Bacterial Biotransformation": "Compound NOT metabolized"
  },
  {
    "molecule": "Clc1cccc(Cl)c1N=C1NCCN1",
    "Bacterial Biotransformation": "Compound metabolized"
  },
  {
    "molecule": "Nc1nc(N)nc(-c2cc(Cl)ccc2Cl)n1.O=C(O)/C=C\\C(=O)O [IRSOGLADINE MALEATE]",
    "Bacterial Biotransformation": "Compound NOT metabolized"
  }
]

----------
studyConditions: human gut metagenome, 24 h, 2 µM
propertyLabel: Bacterial Biotransformation

[
  {
    "compound": "CCOC(=O)C1=C(C)NC(C)=C(C(=O)OC)C1c1cccc([N+](=O)[O-])c1 (configuration not stated)",
    "result": "Compound metabolized"
  },
  {
    "compound": "CCN1CCCC1CNC(=O)c1cc(S(=O)(=O)CC)c(N)cc1OC (configuration not stated) [AMISULPRIDE]",
    "result": "Compound metabolized"
  },
  {
    "compound": "CCOc1ccc2nc(S(N)(=O)=O)sc2c1 [ETHOXZOLAMIDE]",
    "result": "Compound NOT metabolized"
  },
  {
    "compound": "O=C(O)CCC(=O)O.O=C(O[C@H]1CN2CCC1CC2)N1CCc2ccccc2[C@@H]1c1ccccc1 [SOLIFENACIN SUCCINATE]",
    "result": "Compound metabolized"
  },
  {
    "compound": "COc1ccccc1OCCNCC(O)COc1cccc2[nH]c3ccccc3c12 (configuration not stated)",
    "result": "Compound metabolized"
  },
  {
    "compound": "CC(C)(C)N.CCC[C@H](N[C@@H](C)C(=O)N1[C@H](C(=O)O)C[C@@H]2CCCC[C@@H]21)C(=O)OCC",
    "result": "Compound metabolized"
  },
  {
    "compound": "c1ccc2[nH]c(-c3cscn3)nc2c1",
    "result": "Compound NOT metabolized"
  }
]

----------
studyConditions: human gut metagenome, 24 h, 2 µM

[
  {
    "compound": "Nc1nnc(-c2cccc(Cl)c2Cl)c(N)n1",
    "Bacterial Biotransformation": "Compound NOT metabolized"
  },
  {
    "compound": "CN(C/C=C/C#CC(C)(C)C)Cc1cccc2ccccc12",
    "Bacterial Biotransformation": "Compound NOT metabolized"
  },
  {
    "compound": "CN(CCOc1ccc(CC2SC(=O)NC2=O)cc1)c1ccccn1.O=C(O)/C=C\\C(=O)O (centres undefined) [ROSIGLITAZONE MALEATE]",
    "Bacterial Biotransformation": "Compound NOT metabolized"
  }
]

----------
studyConditions: human gut metagenome, 24 h, 2 µM
propertyLabel: Bacterial Biotransformation

[
  {
    "molecule": "CN1CCN2c3ccccc3Cc3ccccc3C2C1 (centres undefined)",
    "propertyLabel": "Bacterial Biotransformation",
    "result": "Compound NOT metabolized"
  },
  {
    "molecule": "CCOc1ccccc1OCCN[C@H](C)Cc1ccc(OC)c(S(N)(=O)=O)c1.Cl [TAMSULOSIN HYDROCHLORIDE]",
    "propertyLabel": "Bacterial Biotransformation",
    "result": "Compound NOT metabolized"
  },
  {
    "molecule": "O=C([O-])C[C@H](O)C[C@H](O)/C=C/c1c(C2CC2)nc2ccccc2c1-c1ccc(F)cc1.O=C([O-])C[C@H](O)C[C@H](O)/C=C/c1c(C2CC2)nc2ccccc2c1-c1ccc(F)cc1.[Ca+2]",
    "propertyLabel": "Bacterial Biotransformation",
    "result": "Compound NOT metabolized"
  }
]

----------
studyConditions: human gut metagenome, 24 h, 2 µM
propertyLabel: Bacterial Biotransformation

[
  {
    "compound": "CC1Cc2ccccc2N1NC(=O)c1ccc(Cl)c(S(N)(=O)=O)c1 (centres undefined) [INDAPAMIDE]",
    "propertyLabel": "Bacterial Biotransformation",
    "result": "Compound NOT metabolized"
  },
  {
    "compound": "CCN(C)C(=O)Oc1cccc([C@H](C)N(C)C)c1.O=C(O)C(O)C(O)C(=O)O [RIVASTIGMINE TARTRATE]",
    "propertyLabel": "Bacterial Biotransformation",
    "result": "Compound NOT metabolized"
  },
  {
    "compound": "CCCCC(=O)O[C@]1(C(=O)CO)[C@@H](C)C[C@H]2[C@@H]3CCC4=CC(=O)C=C[C@]4(C)[C@@]3(F)[C@@H](O)C[C@@]21C [BETAMETHASONE VALERATE]",
    "propertyLabel": "Bacterial Biotransformation",
    "result": "Compound metabolized"
  },
  {
    "compound": "O=C(CCCN1CCC2(CC1)C(=O)NCN2c1ccccc1)c1ccc(F)cc1",
    "propertyLabel": "Bacterial Biotransformation",
    "result": "Compound metabolized"
  },
  {
    "compound": "CC(=O)OCC(=O)[C@@]1(OC(C)=O)[C@@H](C)C[C@H]2[C@@H]3C[C@H](F)C4=CC(=O)C=C[C@]4(C)[C@@]3(F)[C@@H](O)C[C@@]21C [DIFLORASONE DIACETATE]",
    "propertyLabel": "Bacterial Biotransformation",
    "result": "Compound metabolized"
  },
  {
    "compound": "COc1ccc2cc([C@H](C)C(=O)O)ccc2c1",
    "propertyLabel": "Bacterial Biotransformation",
    "result": "Compound metabolized"
  },
  {
    "compound": "Clc1cccc(Cl)c1N=C1NCCN1",
    "propertyLabel": "Bacterial Biotransformation",
    "result": "Compound metabolized"
  },
  {
    "compound": "CC(=O)O[C@]1(C(C)=O)CC[C@H]2[C@@H]3C=C(C)C4=CC(=O)CC[C@]4(C)[C@H]3CC[C@@]21C [MEGESTROL ACETATE]",
    "propertyLabel": "Bacterial Biotransformation",
    "result": "Compound metabolized"
  },
  {
    "compound": "O=C1C(CC[S+]([O-])c2ccccc2)C(=O)N(c2ccccc2)N1c1ccccc1 (centres undefined)",
    "propertyLabel": "Bacterial Biotransformation",
    "result": "Compound metabolized"
  },
  {
    "compound": "C=CC[C@@H]1/C=C(\\C)C[C@H](C)C[C@H](OC)[C@H]2O[C@@](O)(C(=O)C(=O)N3CCCC[C@H]3C(=O)O[C@H](/C(C)=C/[C@@H]3CC[C@@H](O)[C@H](OC)C3)[C@H](C)[C@@H](O)CC1=O)[C@H](C)C[C@@H]2OC.O",
    "propertyLabel": "Bacterial Biotransformation",
    "result": "Compound metabolized"
  },
  {
    "compound": "COc1cc(NC(C)CCCN)c2ncccc2c1.O=P(O)(O)O.O=P(O)(O)O (centres undefined) [PRIMAQUINE PHOSPHATE]",
    "propertyLabel": "Bacterial Biotransformation",
    "result": "Compound metabolized"
  },
  {
    "compound": "C#C[C@]1(OC(C)=O)CC[C@H]2[C@@H]3CCC4=C/C(=N/O)CC[C@@H]4[C@H]3CC[C@@]21CC [NORGESTIMATE]",
    "propertyLabel": "Bacterial Biotransformation",
    "result": "Compound metabolized"
  },
  {
    "compound": "CCc1cccc2c3c([nH]c12)C(CC)(CC(=O)O)OCC3 (centres undefined)",
    "propertyLabel": "Bacterial Biotransformation",
    "result": "Compound NOT metabolized"
  },
  {
    "compound": "COc1cc2nc(N3CCN(C(=O)C4COc5ccccc5O4)CC3)nc(N)c2cc1OC.CS(=O)(=O)O (centres undefined) [DOXAZOSIN MESYLATE]",
    "propertyLabel": "Bacterial Biotransformation",
    "result": "Compound NOT metabolized"
  }
]
